assay: amyloid nucleation score (Sup35N fusion, yeast selection) (log enrichment); library NNK3; higher = more nucleation; inactive = no reads after selection;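 further: zero at mode of non-aggregating sequences after 7 days selection at 30°C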
Measure Name: amyloid nucleation score

Consider the following illustrative entries.
LAVFSEARNEGTTQFYYLLK: inactive
VLQLDL: inactive
CHASRSGIKLLLSIAAWTCI: inactive
TKHPLYM: inactive
WSTPDFRGLHYSTVFITIFA: 0.194
AAVSGDVTM: inactive

Input FTAQRGSTCHPYVRKHEYI . Output amyloid nucleation score: inactive

Input DAYREY . Output amyloid nucleation score: -0.557

Input LGNIGVELVDRCDRYIYQPD . Output amyloid nucleation score: 0.627
